The reported measurements were obtained from patent US20190367619A1.

- ASSAYED SYSTEM: T1, human galectin-10-His (recombinant human galectin-10 with TEV-cleavable N-terminal His-tag) (human)
- T1 construct: SEC-MALLS: dimer in solution; also called Gal10-His; humanGal10-His
- T1 chain: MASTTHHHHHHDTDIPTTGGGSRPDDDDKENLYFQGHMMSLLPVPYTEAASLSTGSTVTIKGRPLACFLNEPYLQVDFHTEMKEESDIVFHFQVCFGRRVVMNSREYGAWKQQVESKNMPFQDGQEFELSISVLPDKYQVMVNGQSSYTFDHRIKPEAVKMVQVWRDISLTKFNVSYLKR
- ASSAY REMARKS: BLI tandem on galectin-10-His; competitor: saturating 4E08 mIgG1 (10 ug/mL)
MEASURED PROPERTY: binding signal (nm)
A number alone suffices; assume nm.

Sample answers from the record:
# BINDER, MEASURED PROPERTY, RESULT NUMBER
measured = [
    ("6F06 mouse IgG1 (antibody, V domains shown, also called 6F06 mIgG1) VH: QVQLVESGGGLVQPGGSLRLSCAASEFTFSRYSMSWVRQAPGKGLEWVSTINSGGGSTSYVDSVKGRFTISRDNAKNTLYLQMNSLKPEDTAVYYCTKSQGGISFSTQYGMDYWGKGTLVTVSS VL: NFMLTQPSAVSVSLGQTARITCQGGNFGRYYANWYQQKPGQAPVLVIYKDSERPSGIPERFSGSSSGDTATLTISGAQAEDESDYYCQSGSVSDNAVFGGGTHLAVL", "binding signal (nm)", 0.02),
    ("6B06 mouse IgG1 (antibody, V domains shown, also called 6B06 mIgG1) VH: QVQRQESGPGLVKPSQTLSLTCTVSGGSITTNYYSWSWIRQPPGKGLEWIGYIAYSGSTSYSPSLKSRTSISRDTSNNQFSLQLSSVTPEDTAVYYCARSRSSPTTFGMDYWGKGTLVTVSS VL: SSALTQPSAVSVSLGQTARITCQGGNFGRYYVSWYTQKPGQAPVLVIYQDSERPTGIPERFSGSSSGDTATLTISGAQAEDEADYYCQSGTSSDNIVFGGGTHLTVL", "binding signal (nm)", 0.03),
]

Lab book: binding signal (nm) of 6A08 mouse IgG1 (antibody, V domains shown, also called 6A08 mIgG1) VH: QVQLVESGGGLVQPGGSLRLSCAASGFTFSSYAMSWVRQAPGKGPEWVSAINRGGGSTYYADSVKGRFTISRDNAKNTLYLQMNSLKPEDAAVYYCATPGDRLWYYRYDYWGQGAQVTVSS VL: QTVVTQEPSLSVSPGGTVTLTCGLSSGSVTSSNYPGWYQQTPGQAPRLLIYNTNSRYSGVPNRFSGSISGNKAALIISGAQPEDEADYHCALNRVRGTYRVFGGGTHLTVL noted as -0.05
